pIC50: −log10 of the molar value.
Quick record: pIC50, PKCa (Homo sapiens (Human), UniProt P17252).

{"columns": ["MOLECULE", "TARGET OF ASSAY", "pIC50"],
 "data": [
  ["CC(N)c1ccc(Oc2ccc3c(c2)B(O)OC3)c(F)c1.Cl (stereo not shown)", "PKCa (Homo sapiens (Human), UniProt P17252)", "< 4.70"],
  ["Cc1c(Oc2ccc(C(C)N)cc2F)ccc2c1B(O)OC2.Cl (single isomer, unassigned)", "PKCa (Homo sapiens (Human), UniProt P17252)", "< 4.70"],
  ["Cc1c(Oc2ccc(C(C)N)cc2F)ccc2c1B(O)OC2 (single isomer, unassigned) [G]", "PKCa (Homo sapiens (Human), UniProt P17252)", 4.81],
  ["Cc1c(Oc2ccc(C(C)N)cc2F)ccc2c1B(O)OC2 (stereo not shown) [E]", "PKCa (Homo sapiens (Human), UniProt P17252)", "< 4.70"]
]}
